The values you see were collected from patent US8580556B2.

- Test system: tetA promoter (PtetA)-lacZ reporter in E. coli KM3
- Type: cell-based
- applied.conditions: Table 6, reverse repressor hits; metsulfuron, same plate assay format as Table 4
reported.metric: relative β-galactosidase activity, inducer Ms

molecule | measured
L1-39: library L1 reverse repressor hit (SEQ ID NO: 1206-1213) (protein, rSuR L1-39) MGSRLDKSKVINSALELLNEVGIEGLTTRKLAQKLGVEQPTLYWHVKNKRALLDALAIEMMDRHQTHFCPLEGESWQDFLRNTAKSYRCALLSHRDGAKVILGTRWTEKQYETRENVLAFLCQQGFSLENALYAWAAVGPFTLGCVLRDQERQVAKEERETPTTDSMPPLLRQALELMDHQGAEPAFLFGLELIICGLEKQLKCESGS | 0.75
L1-41: library L1 reverse repressor hit (SEQ ID NO: 1206-1213) (protein, rSuR L1-41) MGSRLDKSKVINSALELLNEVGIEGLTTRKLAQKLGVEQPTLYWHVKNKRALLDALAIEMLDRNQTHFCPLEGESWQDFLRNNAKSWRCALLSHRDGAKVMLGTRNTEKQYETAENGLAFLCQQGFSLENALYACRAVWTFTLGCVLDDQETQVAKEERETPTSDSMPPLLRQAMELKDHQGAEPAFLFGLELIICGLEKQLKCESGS | 0.56
L1-18: library L1 reverse repressor hit (SEQ ID NO: 1206-1213) (protein, rSuR L1-18) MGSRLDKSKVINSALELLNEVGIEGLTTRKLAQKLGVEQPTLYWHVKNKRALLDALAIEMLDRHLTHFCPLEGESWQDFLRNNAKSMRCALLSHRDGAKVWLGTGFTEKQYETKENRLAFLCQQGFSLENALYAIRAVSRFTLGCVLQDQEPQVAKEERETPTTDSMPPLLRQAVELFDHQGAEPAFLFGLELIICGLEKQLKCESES | 0.79
L1-34: library L1 reverse repressor hit (SEQ ID NO: 1206-1213) (protein, rSuR L1-34) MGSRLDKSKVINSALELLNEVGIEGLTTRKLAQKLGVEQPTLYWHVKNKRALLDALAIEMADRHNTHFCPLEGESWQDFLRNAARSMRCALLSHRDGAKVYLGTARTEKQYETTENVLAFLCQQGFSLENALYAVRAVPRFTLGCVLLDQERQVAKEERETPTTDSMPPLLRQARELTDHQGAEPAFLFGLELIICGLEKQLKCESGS | 1.47
L1-36: library L1 reverse repressor hit (SEQ ID NO: 1206-1213) (protein, rSuR L1-36) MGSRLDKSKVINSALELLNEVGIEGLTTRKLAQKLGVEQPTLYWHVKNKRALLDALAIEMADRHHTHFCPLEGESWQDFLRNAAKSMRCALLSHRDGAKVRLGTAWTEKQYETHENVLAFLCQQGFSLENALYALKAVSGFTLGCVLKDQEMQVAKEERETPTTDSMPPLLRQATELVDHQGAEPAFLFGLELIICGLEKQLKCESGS | 0.38
L1-33: library L1 reverse repressor hit (SEQ ID NO: 1206-1213) (protein, rSuR L1-33) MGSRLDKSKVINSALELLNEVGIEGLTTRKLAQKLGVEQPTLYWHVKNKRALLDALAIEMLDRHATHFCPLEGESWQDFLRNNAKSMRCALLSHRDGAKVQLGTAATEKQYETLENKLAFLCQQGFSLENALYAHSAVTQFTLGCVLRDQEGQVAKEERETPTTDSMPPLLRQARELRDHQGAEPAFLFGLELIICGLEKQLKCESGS | 4.29
